# Tested on: Septoria nodorum
# PROTOCOL TEXT: Test F: wheat glume blotch on wheat seedlings, sprayed the day before inoculation, visual disease rating
# Format: in vivo
# SETTINGS: 200 ppm; 100 = 100% disease control, 0 = no control
PROPERTY: Test F disease control rating

Please give Test F disease control rating for each item listed below.
1. Clc1ccc(-c2c(Cl)nc(Br)n2Cc2cccc(Cl)c2)cc1 [compound 290]
2. Fc1cc(-n2c(Cl)nc(Cl)c2-c2c(F)ccc(F)c2Cl)ccc1Cl [compound 220]

RESULT:
0%
0%

Please give Test F disease control rating for each item listed below.
1. Cc1nc(Cl)c(-c2c(F)cccc2F)n1-c1ccc(F)c(F)c1 [compound 174]
2. N#Cc1cc(F)c(-c2c(Cl)ncn2-c2ccc(Cl)cc2)c(F)c1 [compound 193]
3. Fc1ccc(F)c(-c2c(Cl)nc(Br)n2Cc2ccc(Cl)cc2)c1F [compound 286]
4. COc1cc(F)c(-c2c(Cl)nc(Cl)n2-c2ccc(Cl)c(F)c2)c(F)c1 [compound 240]
5. Cc1ccc(-n2c(Br)nc(Cl)c2-c2c(F)cccc2F)cc1F [compound 170]
6. COc1cc(F)c(-c2c(Cl)nc(I)n2-c2ccc(Cl)cc2)c(F)c1 [compound 245]
7. COc1cc(F)c(-c2c(Cl)nc(Br)n2-c2ccc(Cl)cc2)c(Cl)c1 [compound 171]
8. Cc1ccc(-n2c(Br)nc(Cl)c2-c2c(F)ccc(F)c2F)cc1C [compound 224]

RESULT:
1. 82%
2. 0%
3. 79%
4. 100%
5. 0%
6. 100%
7. 100%
8. 0%

====

# Tested on: Septoria tritici
# PROTOCOL TEXT: Test G: wheat leaf blotch on wheat seedlings, sprayed the day before inoculation, visual disease rating
# Format: in vivo
# SETTINGS: 200 ppm; 100 = 100% disease control, 0 = no control relative to controls
PROPERTY: Test G disease control rating (%)
Numbers only, in %.

Example entries begin here.
COMPOUND	ASSAY SYSTEM	PROPERTY	READING
COc1ccc(F)c(-c2c(Cl)ncn2-c2ccc(F)cc2)c1F [compound 299]	Septoria tritici	Test G disease control rating	97
COc1ccc(F)c(-c2c(Cl)nc(C)n2-c2ccc(Cl)cc2)c1F [compound 122]	Septoria tritici	Test G disease control rating	96
COc1ccc(F)c(-c2c(Cl)nc(C)n2-c2ccc(Cl)nc2)c1F [compound 738]	Septoria tritici	Test G disease control rating	100

Please give Test G disease control rating for each item listed below.
1. Cc1nc(Cl)n(-c2ccc(Cl)cn2)c1-c1c(F)cccc1F [compound 321]
2. Cc1nc(C)n(-c2ccc(F)cc2Cl)c1-c1ccc(Cl)cc1 [compound 307]
3. COc1ccc(F)c(-c2c(Cl)nc(Br)n2-c2cccc(OC(F)F)c2)c1F [compound 402]
4. Cc1cc(-c2cnc(Cl)n2-c2ccc(Cl)cc2)sc1CCl [compound 452]
5. Cc1nc(Cl)c(-c2c(F)cc(F)cc2F)n1-c1ccc(OC(F)(F)F)cc1 [compound 612]

RESULT:
[100, 97, 96, 86, 96]

====

# Tested on: Septoria tritici
# PROTOCOL TEXT: Test G: wheat leaf blotch on wheat seedlings, sprayed the day before inoculation, visual disease rating
# Assay type: in vivo
# SETTINGS: 200 ppm; 100 = 100% disease control, 0 = no control relative to controls
PROPERTY: Test G disease control rating (%)
One number for each entry, in %.

SMILES	PROPERTY	UNIT ABBREV	READING
COc1ccc(F)c(-c2c(Cl)ncn2-c2cccc(C)c2)c1F	Test G disease control rating	%	91

Please give Test G disease control rating for each item listed below.
1. COc1cc(OC)cc(-n2c(Cc3c(F)cc(F)cc3F)cnc2C)c1
2. Fc1ccc(-n2c(Br)nc(Cl)c2-c2c(F)ccc(F)c2F)cc1
3. Fc1cccc(F)c1-c1c(Cl)nc(Cl)n1-c1ccc(Cl)nc1
4. COc1ncccc1-n1c(Cl)nc(Cl)c1-c1c(F)cccc1F

RESULT:
[49, 93, 96, 99]
